Assay: self-splicing fitness, log relative to wild type (ln ratio); higher = more splicing; Tetrahymena group I intron in knt gene, E. coli kanamycin selection, DiMSum; sequences stand for … in CUCUCU…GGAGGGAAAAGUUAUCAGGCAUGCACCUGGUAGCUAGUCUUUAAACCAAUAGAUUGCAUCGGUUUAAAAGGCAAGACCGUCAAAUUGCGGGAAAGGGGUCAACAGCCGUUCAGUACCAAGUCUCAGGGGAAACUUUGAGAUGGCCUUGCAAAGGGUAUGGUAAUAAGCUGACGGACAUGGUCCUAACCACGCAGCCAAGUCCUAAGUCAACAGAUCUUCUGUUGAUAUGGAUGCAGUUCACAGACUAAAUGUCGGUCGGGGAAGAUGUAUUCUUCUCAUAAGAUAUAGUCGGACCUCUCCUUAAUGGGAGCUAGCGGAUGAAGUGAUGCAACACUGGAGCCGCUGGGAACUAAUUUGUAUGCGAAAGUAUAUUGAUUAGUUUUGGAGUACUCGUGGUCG;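 also: selection with 25 µg/mL kanamycin versus none on LB agar overnight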
Conditions: 30 °C
Think of -3 as a floor: if self-splicing fitness (ln) stands on it or above, it is 1 (yes); beneath it, 0 (no).

Reference set (8 entries):
> print(dat)
          sequence.data  label.value
1  UGCGAGCAAUAUUACGACUA      1 (yes)
2  CCCAAGCAAUAUUACGGCGA       0 (no)
3  GAAAAGCAAUAUUACGCAGA      1 (yes)
4  CGGCAGCAAUAUUACGGGAG      1 (yes)
5  CGCGAGCAAUAUUACGGUCA      1 (yes)
6  CGGAAGCAAUAUUACGCCAC       0 (no)
7  GUCCAGCAAUAUUACGACUA      1 (yes)
8  UGCGAGCAAUAUUACGACGC       0 (no)

API: above_or_equal(metric=self-splicing fitness (ln), cutoff=-3) for item UUGAAGCAAUAUUACGUGUG 1 (yes)

Repeat for the following sequence: AACUAGCAAUAUUACGUUAU 1 (yes)

Next: UGUUAGCAAUAUUACGGAUG 1 (yes)

What do you have for UUAGAGCAAUAUUACGGAAG ? 1 (yes)

Then what about the sequence CAGAAGCAAUAUUACGAACA ? 1 (yes)

// next record AUGUAGCAAUAUUACGCAAC 1 (yes)

Same for AUACAGCAAUAUUACGCGGA 1 (yes)

----------
Test: self-splicing fitness, log relative to wild type (ln ratio); higher = more splicing; Tetrahymena group I intron in knt gene, E. coli kanamycin selection, DiMSum; sequences stand for … in CUCUCU…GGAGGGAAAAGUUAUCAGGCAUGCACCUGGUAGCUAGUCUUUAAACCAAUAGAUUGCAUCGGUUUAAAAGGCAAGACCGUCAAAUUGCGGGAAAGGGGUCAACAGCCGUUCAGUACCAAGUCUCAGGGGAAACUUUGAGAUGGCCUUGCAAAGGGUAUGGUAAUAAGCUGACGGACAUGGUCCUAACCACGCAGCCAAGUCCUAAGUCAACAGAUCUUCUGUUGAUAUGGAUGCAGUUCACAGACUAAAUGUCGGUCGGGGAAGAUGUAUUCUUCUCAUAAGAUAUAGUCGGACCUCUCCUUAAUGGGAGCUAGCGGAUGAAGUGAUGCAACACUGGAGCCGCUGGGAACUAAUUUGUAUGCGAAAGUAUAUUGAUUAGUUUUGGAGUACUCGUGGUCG
Conditions: 37 °C
Please respond with reported self-splicing fitness (ln) for every item in the list.
One number for each entry.

Consider the worked cases shown below.
> print(dat)
           sequence.data  measured.value
 1  UUUCAGCAAUAUUACGUCGG           -1.17
 2  GGGGAGCAAUAUUACGGCUG           -1.09
 3  UUAUAGCAAUAUUACGCCGA           0.064
 4  AUGCAGCAAUAUUACGUUAA           -1.71
 5  AUGUAGCAAUAUUACGUAAU          -0.524
 6  AUACAGCAAUAUUACGUGCU           -1.18
 7  GUAUAGCAAUAUUACGUAUG           -1.93
 8  CGUUAGCAAUAUUACGUUGG          -0.573
 9  GCCAAGCAAUAUUACGACUA           -1.77
10  CCUAAGCAAUAUUACGGAGU           -2.55

# per-item lookup of self-splicing fitness (ln); items listed below
1. GUACAGCAAUAUUACGGAGA
2. AAUCAGCAAUAUUACGUUCA

1. -2.81
2. -0.527

Provide each entry's self-splicing fitness (ln) from the list below.
1. GGUAAGCAAUAUUACGUUGU
2. GAUUAGCAAUAUUACGGCAU
3. GAGGAGCAAUAUUACGGUCG
4. GUUAAGCAAUAUUACGAGAC

1. -1.61
2. 0.24
3. -2.19
4. -0.662

For every item in the list below, what is its measured self-splicing fitness (ln)?
1. CCGUAGCAAUAUUACGCCGU
2. CCUUAGCAAUAUUACGGGCC

1: -2.16; 2: -2.54

Would you be so kind as to report self-splicing fitness (ln) for each listed record?
1. CCUUAGCAAUAUUACGCGAU
2. UCCCAGCAAUAUUACGUGCA
3. GAAUAGCAAUAUUACGUAAG
4. ACGUAGCAAUAUUACGAGGG
5. UAUCAGCAAUAUUACGUCAG

1. -3.16
2. -0.597
3. -0.886
4. -2.92
5. -0.143
